Test system: Jurkat
Test protocol: Toxicity in human Jurkat cells at 20 uM after 40 hrs by LDH assay
Format: cell-based
Activity overview

[[record]]
mol = "COc1ccc2[nH]cc(/C=N/NC(=O)C(=O)c3cn(Cc4ccc(Cl)cc4)c4ccccc34)c2c1"
subject_of_test = "Jurkat"
experimental_endpoint = "Activity"
measured_value = "20 to 25%"


Okay, now this molecule:
Memo: O=C(N/N=C/c1c[nH]c2ccccc12)C(=O)c1cn(Cc2ccc(Cl)cc2)c2ccccc12 , reported Activity: 20 to 25%

----------
Test protocol: Inhibition of porcine brain tubulin polymerization incubated for 5 mins by fluorimetry
Set-up: species or system Sus scrofa
Experimental endpoint: pIC50
In simple prose, pIC50 is minus the logarithm base ten of a concentration in moles per litre.

response.value for O=C(N/N=C/c1c[nH]c2ccccc12)C(=O)c1cn(Cc2ccc(Cl)cc2)c2ccccc12 (field: pIC50) = 6.22

Every entry's value here was drawn from ChEMBL document CHEMBL4138086.
